B1: library; a variant is named by its letters at N, in order (parent)
chain: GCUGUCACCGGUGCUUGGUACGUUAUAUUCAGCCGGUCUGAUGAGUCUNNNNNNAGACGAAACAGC

- Variants of: B1
- assayExplanation: normalized RNA/DNA level with ligand (relative to sTRSVctl = 100) (log10 (% of sTRSVctl)); HEK293T overexpressing SLC46A1; ligand concentration (+) RNA-Seq: 6 mM; higher = less ribozyme self-cleavage, higher mRNA level
- experimentalConditions: with (6R,S)-folinic acid; ligand present: yes
readout: normalized RNA/DNA level with ligand (log10)
API doc: respond with a numeric literal and nothing else, no unit.

1. CUGACA = 2.03
2. CUAACA = 2.03
3. CUAGUA = 2
4. AGCCUG = 2.05
5. CAGAUC = 2.03
6. UACCCC = 2.02

So for UAGGUA , the logged normalized RNA/DNA level with ligand (log10) turned out to be 1.98

So for UCGGGG , the logged normalized RNA/DNA level with ligand (log10) turned out to be 1.99

So for CUAAGC , the logged normalized RNA/DNA level with ligand (log10) turned out to be 2.02

So for GGCUAG , the logged normalized RNA/DNA level with ligand (log10) turned out to be 2.04

So for UAGUUU , the logged normalized RNA/DNA level with ligand (log10) turned out to be 2.02
